# target_or_test_system: small-conductance Ca2+-activated K+ channels (SK channels, subtype 2) (Homo sapiens, UniProt Q9H2S1)
# Construct: expressed in transfected cells; host or cells: HEK293
# assay_summary: whole-cell patch-clamp of ionic current through SK2 channels in HEK293 cells (SC100)
# Assay type: cell-based
# condition_context: whole-cell patch-clamp, HEK293 cells expressing SK2 channels; concentration that increases the basal current by 100%
quantity_kind: SC100 (μM)

Consider the reported SC100 (μM) for these molecules:
[Q] Fill in: SC100 (μM) of Cc1csc(-c2nc(NC3CCC(F)(F)CC3)cc(N3CCOCC3COC(C)C)n2)n1 (centres unmarked) [IN10965-091-P1] is ___
[A] + (+ means >1 uM)

[Q] Fill in: SC100 (μM) of COCc1cc(NC2CC(F)(F)C2)nc(-n2nc(C)cc2C)n1 [IN11108-038-P1] is ___
[A] + (+ means >1 uM)

[Q] Fill in: SC100 (μM) of Cc1noc(-c2cc(N3CCOCC3)cc(NC3CCC(F)(F)CC3)n2)n1 is ___
[A] + (+ means >1 uM)

[Q] Fill in: SC100 (μM) of COCc1cnc(-c2nc(C)cs2)nc1NC1CCC(F)(F)CC1 [IN11238-046-P1] is ___
[A] + (+ means >1 uM)

[Q] Fill in: SC100 (μM) of COCC1CN(c2cc(NC3CCC(F)(F)CC3)nc(-c3nc(C)cs3)n2)CCN1C (centres unmarked) [IN10864-060-P1] is ___
[A] +++ (+++ means <200 nM)

[Q] Fill in: SC100 (μM) of Cc1ccn(-c2cc(CN3CCCOC3=O)cc(NC3CCC(F)(F)CC3)n2)n1 [IN11083-014-P1] is ___
[A] + (+ means >1 uM)

Next molecule, SC100 (μM) to be filled in.
[Q] Fill in: SC100 (μM) of Cc1ccnn1-c1nc(NC2CCC(F)(F)CC2)cc(N2CCOCC2)n1 [IN11237-056-P1] is ___
[A] + (+ means >1 uM)

----------
# target_or_test_system: small-conductance Ca2+-activated K+ channels (SK channels, subtype 2) (Homo sapiens)
# Construct: expressed in transfected cells; host or cells: HEK293
# assay_summary: whole-cell patch-clamp of ionic current through SK2 channels in HEK293 cells (SC100)
# Format: cell-based
# condition_context: whole-cell patch-clamp, HEK293 cells expressing SK2 channels; concentration that increases the basal current by 100%
quantity_kind: SC100 (μM)

Consider the reported SC100 (μM) for these compounds:
[Q] Fill in: SC100 (μM) of COc1cc(NC2CCC3(CC2)COC3)nc(-c2nc(C)cs2)n1 [IN11104-084-P2] is ___
[A] + (+ means >1 uM)

[Q] Fill in: SC100 (μM) of OC(c1cc(NC2CCC(F)(F)CC2)nc(-n2cc(F)cn2)c1)c1ncco1 (stereo not drawn) is ___
[A] + (+ means >1 uM)

[Q] Fill in: SC100 (μM) of CCOC(=O)c1cnc(-c2nc(C)cs2)nc1NC1CCC(F)(F)CC1 [IN11238-035-P1] is ___
[A] + (+ means >1 uM)

[Q] Fill in: SC100 (μM) of COc1cc(NC2CCCC2)nc(-c2nc(C)cs2)n1 [IN11055-066-P1] is ___
[A] + (+ means >1 uM)

[Q] Fill in: SC100 (μM) of FCc1ccn(-c2nc(NC3CCC(F)(F)CC3)cc(OC3CC(F)C3)n2)n1 (stereo not drawn) is ___
[A] + (+ means >1 uM)

[Q] Fill in: SC100 (μM) of COC(=O)N1CC(Oc2cc(NC3CCC(F)(F)CC3)ncn2)C1 is ___
[A] + (+ means >1 uM)

[Q] Fill in: SC100 (μM) of Cc1cc(NC2CCC(F)(F)CC2)cc(-c2nc(C)cs2)c1 [IN11063-086-P2] is ___
[A] + (+ means >1 uM)

Next compound, SC100 (μM) to be filled in.
[Q] Fill in: SC100 (μM) of Cc1cc(C)n(-c2nc(NC3CCC(F)(F)CC3)cc(C(C)N3CCOCC3)n2)n1 (stereo not drawn) [IN10987-055-P1] is ___
[A] + (+ means >1 uM)

----------
# target_or_test_system: small-conductance Ca2+-activated K+ channels (SK channels, subtype 2) (Homo sapiens)
# Construct: expressed in transfected cells; host or cells: HEK293
# assay_summary: whole-cell patch-clamp of ionic current through SK2 channels in HEK293 cells (SC100)
# Assay type: cell-based
# condition_context: whole-cell patch-clamp, HEK293 cells expressing SK2 channels; concentration that increases the basal current by 100%
quantity_kind: SC100 (μM)

[Q] Fill in: SC100 (μM) of Cc1ccn(-c2cc(COc3ncccc3C(C)(C)O)cc(NC3CCC(F)(F)CC3)n2)n1 [IN11039-069-P1] is ___
[A] +++ (+++ means <200 nM)

[Q] Fill in: SC100 (μM) of Cc1ccn(-c2nc(NC3CCC(F)(F)CC3)cc(C(C)S(C)(=O)=O)n2)n1 (stereo not shown) [IN10973-060-P1] is ___
[A] + (+ means >1 uM)

[Q] Fill in: SC100 (μM) of Cc1ccn(-c2cc(COc3ccc(C(N)=O)nn3)cc(NC3CCC(F)(F)CC3)n2)n1 [NSSy6451] is ___
[A] +++ (+++ means <200 nM)

[Q] Fill in: SC100 (μM) of Cc1cc(NC2CCC(F)(F)CC2)nc(Cn2ccc(C)n2)n1 [IN11273-015-P1] is ___
[A] + (+ means >1 uM)

[Q] Fill in: SC100 (μM) of Cc1ccn(-c2cc3c(c(NC4CCC(F)(F)CC4)n2)CCCC3)n1 [IN11039-036-P1] is ___
[A] + (+ means >1 uM)

[Q] Fill in: SC100 (μM) of Cc1cc(NC2CCC(F)(F)CC2)nc(-n2cc(-n3cc(F)c(C)n3)c(C)n2)n1 [IN11216-072-P1] is ___
[A] + (+ means >1 uM)

New cases:
[Q] Fill in: SC100 (μM) of Cc1ccn(-c2cc(NC3CCC(F)(F)CC3)cc(N3CCOCC3)n2)n1 [IN10973-098-P1] is ___
[A] + (+ means >1 uM)

These entries and their values trace back to patent US10774064B2.
